Test: yeast display, Sf9 membrane polyspecificity reagent, FACS + sequencing; frameworks hold sequencing errors
parameter: polyreactivity (PSR sort gate)

Observe how each entry below is paired with its result.
INSERT INTO assay_data (residue_sequence, result) VALUES
  ('QVQLVESGGRLVQEGGSLRLRCAASGSIFSGYAMGWSRQAPGKERELVAVITRGGNTNYADSVKGRFTISRDNAKNTVSLQMNSLTPEDTAVYYCAVDLRKSYRHKFDFNYWGQGTQVTVSS', 'low polyreactivity'),
  ('QVQLVESGGGLVQAGGSLRLSCAASGSTLPRYTMGWYRQAPGKERELVAAISFSGSSTYYADSVKGRFTISRVNAKNTVYLQMNSLKPEDTAVYYCRYGYNYWGQGTQVTVSS', 'high polyreactivity'),
  ('QVQLVESGGGLVQAGGSLRLSCAATGSILNYYAMGWYRQAPGKERELVATISSGGNTHYADSVKGRFTISRDNAKNTVYLQMNSLKPEDTAVYYSAAVASKHWGRDYWGQGTQVTVSS', 'low polyreactivity'),
  ('QDQLVESVGGLVQAGGSLRLSCAASGSIFRLYAMGWYRHAPGKERELVAGITSSDGSTYADSVKGRFTISRDNAKNTVYLQMNSLKPEDTAVYYCAARGYVRWYNRYDYWGQGTQVTVSS', 'low polyreactivity'),
  ('QVQLVESGGGLVQAGGSLRLSCAASGSIFTRYAMGWYRQAPGKERELVATISFIGSSTYYADSVKGRFTISRDNAKNTVYLQMNSLKPEDTAVYSCAATGYARQYEYRYDYWGQGTQVTVSS', 'low polyreactivity'),
  ('QVQLVESGGGLVQAGGSLRLSCAASGSTSWSYAMGWYRQAPGKERELVAAITRTGSTNYADSVKGRFTISRDNAKNTVYLQMNSLKPEDTAVYYCVYATLRYDYWGQGTQVTVSS', 'low polyreactivity');

Turning now to a further sequence:
Quick check: polyreactivity (PSR sort gate) of QVQLVESGGGLVQAGGILRLSCAASGSIFGLYAMVWYRQAPGKERELVAAISPRGGSTYYADSVKGRFTISRDNAKNTVYLQMNILKPEDTAVYYCNRDYIRYALGHDYWGQGPQVTVSS ? high polyreactivity
